- procedure_text: Caco 2 permeability assay
- Format: in vitro ADME, human
- condition_set: human; Caco-2 monolayer, basolateral to apical, 10 μM, 120 min, HBSS pH 7.4; read-out: Peff b − a
quantity_kind: Papp B→A at 120 min, 10 μM (×10⁻⁶ cm/s)
Response body: numeric value in ×10⁻⁶ cm/s, unit text excluded.

Q: Indicate its recorded Papp B→A at 120 min, 10 μM; the molecule in question is "O=C(N[C@H](C(=O)N1C[C@H](Cl)[C@H]2OCC(=O)[C@H]21)C1CCCCC1)c1ccc(-c2ccncn2)s1"
Result: 7.03

Q: Tell me its Papp B→A at 120 min, 10 μM given O=C(N[C@H](C(=O)N1C[C@H](Cl)[C@H]2OCC(=O)[C@H]21)C1CCCCC1)c1cccc(-c2cn[nH]c2)c1 [Example C1, reference compound] as the entry.
Result: 24.6

Q: Fill in reported Papp B→A at 120 min, 10 μM for this entry: "O=C(N[C@H](C(=O)N1C[C@H](Cl)[C@H]2OCC(=O)[C@H]21)C1CCCCC1)c1ccc(-c2ccnnc2)s1"
Result: 12.5

Q: Note Papp B→A at 120 min, 10 μM for the molecule shown: "O=C(N[C@H](C(=O)N1C[C@H](Cl)[C@H]2OCC(=O)[C@H]21)C1CCCCC1)c1ccc(-c2cncnc2)s1"
Result: 14.2
